FGF21 activity (EC50, nM); p-ERK levels: recorded values
Target Or Test System: T1, human beta-Klotho (human, UniProt Q86Z14 1-1044)
T1 sequence (looked up): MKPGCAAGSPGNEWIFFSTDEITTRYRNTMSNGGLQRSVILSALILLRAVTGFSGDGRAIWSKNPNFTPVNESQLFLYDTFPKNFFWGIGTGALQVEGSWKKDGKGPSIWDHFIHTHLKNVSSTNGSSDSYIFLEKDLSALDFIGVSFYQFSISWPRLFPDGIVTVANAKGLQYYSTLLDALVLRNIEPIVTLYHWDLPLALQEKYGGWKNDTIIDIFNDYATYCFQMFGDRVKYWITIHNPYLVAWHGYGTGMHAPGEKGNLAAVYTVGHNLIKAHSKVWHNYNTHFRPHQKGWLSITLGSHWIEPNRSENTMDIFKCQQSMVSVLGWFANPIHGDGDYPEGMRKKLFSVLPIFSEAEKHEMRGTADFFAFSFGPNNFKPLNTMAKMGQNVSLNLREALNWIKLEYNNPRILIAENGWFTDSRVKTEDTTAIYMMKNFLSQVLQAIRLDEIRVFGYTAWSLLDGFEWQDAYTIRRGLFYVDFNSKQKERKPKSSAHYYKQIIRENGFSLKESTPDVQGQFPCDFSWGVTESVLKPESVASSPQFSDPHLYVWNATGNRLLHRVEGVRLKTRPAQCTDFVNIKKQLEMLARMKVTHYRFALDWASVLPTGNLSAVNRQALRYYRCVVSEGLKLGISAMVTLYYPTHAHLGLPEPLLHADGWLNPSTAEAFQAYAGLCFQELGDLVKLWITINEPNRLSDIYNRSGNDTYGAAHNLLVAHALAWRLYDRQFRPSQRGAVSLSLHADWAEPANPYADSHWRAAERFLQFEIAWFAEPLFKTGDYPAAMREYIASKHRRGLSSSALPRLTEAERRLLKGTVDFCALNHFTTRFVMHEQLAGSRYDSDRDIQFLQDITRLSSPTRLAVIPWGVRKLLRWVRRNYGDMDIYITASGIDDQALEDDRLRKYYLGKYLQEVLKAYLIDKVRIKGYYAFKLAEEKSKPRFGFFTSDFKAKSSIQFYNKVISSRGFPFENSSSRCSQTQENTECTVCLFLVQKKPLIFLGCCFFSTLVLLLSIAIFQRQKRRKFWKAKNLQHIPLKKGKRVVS
Experimental Protocol: cell-based or functional assay
Kindly provide the numeric value in nM only, without the unit symbol.

Binder	Value Measured
Compound 48 (ligand, Moiety A (HOOC-(CH2)16-CO-gGlu-2XADO) on 51K and 222K of fusion polypeptide) HGEGTFTSDVSSYLEEQAAREFIAWLVRGGGGAQPGAQPGAQPGAQPGAQKHPIPDSSPLLQFGGQVRQRYLYTDDAQQTEAHLEIREDGTVGGAADQSPESLLQLRALRPGVIQILGVRTSRFLCQRPDGALYGSLHFDPEACSFRELLLEDGYNVYQSEAHGLPLHLPGQRSPHRDPAPRGPARFLPLPGLPPALPEPPGILAPQPPDVGSSDPLSLVGKSQGRSPSYES	20.4
Compound 9 (ligand, Moiety A (HOOC-(CH2)16-CO-gGlu-2XADO) on 231K of fusion polypeptide) HGEGTFTSDVSSYLEEQAAREFIAWLVRGGGGGGGSGGGGSGGGGSGGGGSHPIPDSSPLLQFGGQVRQRYLYTDDAQQTEAHLEIREDGTVGGAADQSPESLLQLRALRPGVIQILGVRTSRFLCQRPDGALYGSLHFDPEACSFRELLLEDGYNVYQSEAHGLPLHLPGQRSPHRDPAPRGPARFLPLPGLPPALPEPPGILAPQPPDVGSSDPLSLVGGSQGRSPSYKS	4.9
Compound 50 (ligand, Moiety A (HOOC-(CH2)16-CO-gGlu-2XADO) on 51K and 233K of fusion polypeptide) HGEGTFTSDVSSYLEEQAAREFIAWLVRGGGGGGGSGGGGSGGGGSGGGGKHPIPDSSPLLQFGGQVRQRYLYTDDAQQTEAHLEIREDGTVGGAADQSPESLLQLRALRPGVIQILGVRTSRFLCQRPDGALYGSLHFDPEACSFRELLLEDGYNVYQSEAHGLPLHLPGQRSPHRDPAPRGPARFLPLPGLPPALPEPPGILAPQPPDVGSSDPLSLVGGSQGRSPSYESK	8.7
Compound 19 (ligand, Moiety A (HOOC-(CH2)16-CO-gGlu-2XADO) on 51K and 222K of fusion polypeptide) HGEGTFTSDVSSYLEEQAAREFIAWLVRGGGGGGGSGGGGSGGGGSGGGGKHPIPDSSPLLQFGGQVRQRYLYTDDAQQTEAHLEIREDGTVGGAADQSPESLLQLRALRPGVIQILGVRTSRFLCQRPDGALYGSLHFDPEACSFRELLLEDGYNVYQSEAHGLPLHLPGQRSPHRDPAPRGPARFLPLPGLPPALPEPPGILAPQPPDVGSSDPLSLVGKSQGRSPSYES	13.6

Q) Quick check: FGF21 activity (EC50, nM); p-ERK levels of Compound 21 (ligand, Moiety A (HOOC-(CH2)16-CO-gGlu-2XADO) on 51K and 225K of fusion polypeptide) HGEGTFTSDVSSYLEEQAAREFIAWLVRGGGGGGGSGGGGSGGGGSGGGGKHPIPDSSPLLQFGGQVRQRYLYTDDAQQTEAHLEIREDGTVGGAADQSPESLLQLRALRPGVIQILGVRTSRFLCQRPDGALYGSLHFDPEACSFRELLLEDGYNVYQSEAHGLPLHLPGQRSPHRDPAPRGPARFLPLPGLPPALPEPPGILAPQPPDVGSSDPLSLVGGSQKRSPSYES ?
A) 17.6

Source: patent US20220016254A1
